- ASSAY_NAME: MRT (0 to infinity) in male Sprague-Dawley rat at 20 mg/kg, po measured for 0.083 to 12 hrs by LC-MS/MS analysis
- Format: ADME, organism-based
- MEASUREMENT_CONTEXT: in vivo, time 0.083-12 hrs
MEASURE_NAME: MRT inf (h)

* CCCNNC(=O)CCCCCCNC(=O)c1cnc(-c2ccc(NC(=O)OC(C)(C)C)cc2)s1 | 3.13

----------
- ASSAY_NAME: AUC (0 to infinity) in male Sprague-Dawley rat at 2 mg/kg, iv measured for 0.083 to 12 hrs by LC-MS/MS analysis
- Assay type: ADME, organism-based
- MEASUREMENT_CONTEXT: in vivo, time 0.083-12 hrs
MEASURE_NAME: AUC(0-inf) (ng·h/mL)

- CCCNNC(=O)CCCCCCNC(=O)c1cnc(-c2ccc(NC(=O)OC(C)(C)C)cc2)s1: 658

----------
- ASSAY_NAME: VRT (0 to t) in male Sprague-Dawley rat at 20 mg/kg, po measured for 0.083 to 12 hrs by LC-MS/MS analysis
- Assay type: ADME, organism-based
- MEASUREMENT_CONTEXT: in vivo, time 0.083-12 hrs
MEASURE_NAME: VRT(t) (h²)

* CCCNNC(=O)CCCCCCNC(=O)c1cnc(-c2ccc(NC(=O)OC(C)(C)C)cc2)s1 | 6.38

----------
Documented inhibition at 10 µM across a set of molecules
- System: HCT-116
- ASSAY_NAME: cells
- Type: functional
- MEASUREMENT_CONTEXT: Homo sapiens, time 72 hrs
MEASURE_NAME: inhibition at 10 µM (%)

- CCCNNC(=O)CCCCCNC(=O)c1cnc(-c2ccc(Oc3ccccc3)cc2)s1: 82.6
- CCCNNC(=O)CCCCCCNC(=O)c1cnc(-c2ccc3c(c2)OCO3)s1: 68.4
- CCCNNC(=O)CCCCCCNC(=O)c1cnc(-c2ccc3ccccc3c2)s1: 94.7
- CCCNNC(=O)c1ccc(NC(=O)c2cnc(-c3cc4ccc5cccc6ccc(c3)c4c56)s2)cc1: 69.3
- CCCNNC(=O)CCCCCCNC(=O)c1cnc(-c2ccc(Br)cc2)s1: 59.3
- CCCNNC(=O)CCCCCCNC(=O)c1cnc(-c2c[nH]c3ccccc23)s1: 72.7
- CCCNNC(=O)CCCCCNC(=O)c1cnc(-c2ccc(NC(=O)OC(C)(C)C)cc2)s1: 53.6
- CCCNNC(=O)CCCCCNC(=O)c1cnc(-c2ccc(Cl)cc2Cl)s1: 54
- CCCNNC(=O)CCCCCNC(=O)c1cnc(-c2ccc(F)cc2F)s1: 62.9
- Nc1ccccc1NC(=O)c1ccc(CNC(=O)OCc2cccnc2)cc1: 94.6
- CCCNNC(=O)CCCCCCNC(=O)c1cnc(-c2ccc(NC(=O)OC(C)(C)C)cc2)s1: 93.6
- CCCNNC(=O)CCCCCNC(=O)c1cnc(-c2ccc(OC(F)(F)F)cc2)s1: 62.9
- CC(C)(C)OC(=O)Nc1ccc(-c2ncc(C(=O)NCCCCCCC(=O)NNCC3CC3)s2)cc1: 85.8
- CC(C)=CCCC(C)CNNC(=O)CCCCCCNC(=O)c1cnc(-c2ccc(NC(=O)OC(C)(C)C)cc2)s1 (stereo not given): 58.7
- CC(C)CNNC(=O)CCCCCCNC(=O)c1cnc(-c2ccc(NC(=O)OC(C)(C)C)cc2)s1: 59
- CCCNNC(=O)CCCCCNC(=O)c1cnc(-c2cccc3ccccc23)s1: 60.6
